# TARGET_SYSTEM: T1, TNFR1 (Homo sapiens, UniProt P19438)
# T1 chain: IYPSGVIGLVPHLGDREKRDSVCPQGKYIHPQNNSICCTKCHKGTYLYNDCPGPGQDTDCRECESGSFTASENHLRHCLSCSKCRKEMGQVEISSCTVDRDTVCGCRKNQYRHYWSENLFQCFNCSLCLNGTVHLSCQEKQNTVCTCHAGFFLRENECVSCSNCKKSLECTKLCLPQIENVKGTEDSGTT
# PROTOCOL: yeast display SC50
MEASURE_NAME: apparent Kd (screen) (nM)

Worked examples, 2 binders total:
- BINDER: "L75H (designed binder) SMEEEVEKAAKEYEKKKKEAIEKHLEKLKAKDKEAAERFLKELEEAAKEYAKDEAKTMSEEEAKRRAKKYKEKVHLSELSEEEQKEIKEAEEKLVRTILKYVEEAAK"
  apparent Kd (screen), nM: 1.69
- BINDER: "A106N (designed binder) SMEEEVEKAAKEYEKKKKEAIEKHLEKLKAKDKEAAERFLKELEEAAKEYAKDEAKTMSEEEAKRRAKKYKEKVLLSELSEEEQKEIKEAEEKLVRTILKYVEEANK"
  apparent Kd (screen), nM: 1.05

(A) Y101T (designed binder) SMEEEVEKAAKEYEKKKKEAIEKHLEKLKAKDKEAAERFLKELEEAAKEYAKDEAKTMSEEEAKRRAKKYKEKVLLSELSEEEQKEIKEAEEKLVRTILKTVEEAAK
(B) F39L (designed binder) SMEEEVEKAAKEYEKKKKEAIEKHLEKLKAKDKEAAERLLKELEEAAKEYAKDEAKTMSEEEAKRRAKKYKEKVLLSELSEEEQKEIKEAEEKLVRTILKYVEEAAK
Request: # returns the entry with the larger apparent Kd (screen); inputs A and B Pick one; state its label.
Response: B

Source listed as paper PMC12416549.
